Data provenance: patent US4238620A

# Assay Summary: in vivo
# Test Context: rat, po
# Experimental: (b) Repeated administrations in rats Test compounds were orally administered once daily for 5 days, and LD50 -value was calculated from the mortality on the 6th day.
Measurement Name: LD50 at 144 h

>>> measured_result("CC(C(=O)OCCOCCO)c1ccc2c(c1)C(=O)Cc1ccccc1O2 (racemic)")
"> 24 mg/kg"

* * *

Reported TD50 values are given for each entry in this list.
# Assay Summary: Gastrointestinal ulcer formation in fed rats (ulcerogenicity)
# Format: in vivo
# Test Context: rat, in vivo, po, fed rats; read-out: UD50 (50% ulcer forming dose)
Measurement Name: TD50 (mg/kg)

>>> measured_result("Cc1ccc2c(c1)CC(=O)c1cc(C(C)C(=O)O)ccc1S2 (racemic)")
2.76
>>> measured_result("Cc1ccc2c(c1)CC(=O)c1cc(C(C)C(=O)O)ccc1O2 (racemic)")
2.97
>>> measured_result("Cc1ccc2c(c1)CC(=O)c1cc(C(C)C(=O)OCCOCCO)ccc1S2 (racemic)")
2.94

* * *

# Assay Summary: in vivo
# Test Context: rat, po
Measurement Name: LD50 at 168 h

>>> measured_result("CC(C(=O)OCCOCCO)c1ccc2c(c1)C(=O)Cc1ccccc1O2 (racemic)")
"260 mg/kg"

* * *

# Assay Summary: in vivo
# Test Context: rat, po, rats, single administration, 7th day, read-out: LD50 Single
Reported LD50 at 168 h values are given for each entry in this list.
Measurement Name: LD50 at 168 h (mg/kg)

>>> measured_result("Cc1ccc2c(c1)CC(=O)c1cc(C(C)C(=O)OCCOCCO)ccc1O2 (racemic) [compound E]")
219
>>> measured_result("CC(C(=O)O)c1ccc2c(c1)C(=O)Cc1ccccc1O2 (stereo not shown) [compound 1, reference compound]")
106
>>> measured_result("Cc1ccc2c(c1)CC(=O)c1cc(C(C)C(=O)O)ccc1O2 (racemic) [compound A]")
147
>>> measured_result("COc1ccc2c(c1)c(CC(=O)O)c(C)n2C(=O)c1ccc(Cl)cc1 [compound 3, indomethacin, reference compound]")
18.5

* * *

Reported TD50 values are given for each entry in this list.
# Assay Summary: Gastrointestinal ulcer formation in fed rats (ulcerogenicity)
# Format: in vivo
# Test Context: rat, in vivo, po, fed rats; read-out: UD50 (50% ulcer forming dose)
Measurement Name: TD50 (mg/kg)

>>> measured_result("CC(C(=O)O)c1ccc2c(c1)C(=O)Cc1ccccc1O2 (stereo not shown) [compound 1, reference compound]")
4.85
>>> measured_result("CC(C(=O)O)c1ccc2c(c1)C(=O)Cc1ccccc1S2 (stereo not shown) [compound 2, reference compound]")
0.62
>>> measured_result("COc1ccc2c(c1)c(CC(=O)O)c(C)n2C(=O)c1ccc(Cl)cc1 [compound 3, indomethacin, reference compound]")
3.95
>>> measured_result("Cc1ccc2c(c1)CC(=O)c1cc(C(C)C(=O)OCCOCCO)ccc1O2 (racemic)")
4.04

* * *

# Test system: AgNO3-induced joint pain in rats
# Assay Summary: AgNO3-induced joint pain in rats (AGP method), analgesic activity
# Type: in vivo
# Test Context: Rattus norvegicus, po, read-out: Analgesic activity ED50, AGP
Reported ED50 values are given for each entry in this list.
Measurement Name: ED50 (mg/kg)

>>> measured_result("Cc1ccc2c(c1)CC(=O)c1cc(C(C)C(=O)OCCOCCO)ccc1S2 (racemic) [compound G]")
0.96
>>> measured_result("CC(C(=O)O)c1ccc2c(c1)C(=O)Cc1ccccc1O2 (stereo not shown) [compound 1, reference compound]")
5.8
>>> measured_result("Cc1ccc2c(c1)CC(=O)c1cc(C(C)C(=O)OCCOCCO)ccc1O2 (racemic) [compound E]")
3.8
>>> measured_result("CC(C(=O)O)c1ccc2c(c1)C(=O)Cc1ccccc1S2 (stereo not shown) [compound 2, reference compound]")
1.66
>>> measured_result("COc1ccc2c(c1)c(CC(=O)O)c(C)n2C(=O)c1ccc(Cl)cc1 [compound 3, indomethacin, reference compound]")
4.1
>>> measured_result("Cc1ccc2c(c1)CC(=O)c1cc(C(C)C(=O)O)ccc1S2 (racemic) [compound C]")
1.41
>>> measured_result("Cc1ccc2c(c1)CC(=O)c1cc(C(C)C(=O)O)ccc1O2 (racemic) [compound A]")
2.6

* * *

# Assay Summary: in vivo
# Test Context: rat, po, rats, once daily for 5 days, mortality on 6th day, read-out: LD50 Repeated
Measurement Name: LD50 at 144 h

>>> measured_result("Cc1ccc2c(c1)CC(=O)c1cc(C(C)C(=O)OCCOCCO)ccc1S2 (racemic)")
"> 16 mg/kg"
>>> measured_result("COc1ccc2c(c1)c(CC(=O)O)c(C)n2C(=O)c1ccc(Cl)cc1 [compound 3, indomethacin, reference compound]")
"~5 mg/kg"
>>> measured_result("CC(C(=O)O)c1ccc2c(c1)C(=O)Cc1ccccc1S2 (stereo not drawn) [compound 2, reference compound]")
"2.15 mg/kg"
>>> measured_result("Cc1ccc2c(c1)CC(=O)c1cc(C(C)C(=O)O)ccc1O2 (racemic)")
"> 12 mg/kg"
>>> measured_result("Cc1ccc2c(c1)CC(=O)c1cc(C(C)C(=O)O)ccc1S2 (racemic)")
"> 12 mg/kg"
>>> measured_result("Cc1ccc2c(c1)CC(=O)c1cc(C(C)C(=O)OCCOCCO)ccc1O2 (racemic)")
"> 16 mg/kg"
